System: RPMI-8226 leukemia
assay-text: NCI tumour cell line growth inhibition, 48 h; in the data active = GI50 below about 0.43 µM; inactive = the rest
Possible outcomes: class 1 = active, class 0 = inactive

structure-string | class
Cc1cc2c([nH]1)CSc1cc(S(=O)(=O)c3ccccc3)c(=O)[nH]c1-2 | class 0
CC(C)(C)c1ccc(C(=O)Nc2sc3c(c2C#N)CCC(=O)C3)cc1 | class 1
Cc1cccc2c(C(=O)O[C@H](C(N)=O)[C@]3(C)CO3)cccc12 | class 0

====

Test system: NCI-H23 lung
assay-text: NCI tumour cell line growth inhibition, 48 h

compound | TGI
Cc1nnc(N)nc1C/C=C/C(Sc1ccc(Cl)cc1)c1ccccc1 (centres undefined) | 22.2 µM
COc1cc(Br)cc2cc(C3=CSC4=NCCN34)c(=O)oc12 | 40.8 µM
CCCCNc1nc2nc[nH]c2c(=O)[nH]1 | > 100 µM
O=P(O)(O)C(NCC(O)CN1CCOCC1)P(=O)(O)O (centres undefined) | > 100 µM
O=C(O)C1(c2ccccc2)CCCNCC1 (centres undefined) | > 100 µM
CCOc1nc(OCC)nc(-c2cccn2-c2ccccc2)n1 | > 100 µM
COC(=O)/C(C#N)=C(\Nc1ccccc1)N1CCCC1 | > 100 µM
CC1(C)SC2C(NC(=O)C(C(=O)O)c3ccccc3)C(=O)N2C1C(=O)O (centres undefined) | > 100 µM
CC(=O)c1nc2ccccc2n1CCN1CCN(C)CC1 | > 100 µM
CCC(Cc1cnc2nc(N)nc(N)c2n1)c1ccc(C(=O)NC(CCC(=O)O)C(=O)O)cc1 (centres undefined) | > 100 µM
Cc1ccccc1-n1c(=O)sc2c(=O)n(-c3ccccc3)c(=S)[nH]c21 | > 100 µM
NC1(C(=O)O)CCCC1C(=O)O (centres undefined) | > 100 µM
Cn1cc(-c2nc3c(F)cc4[nH]ncc4c3c3c2CCCC3)c(C(F)(F)F)n1 | > 100 µM
OCc1nnn2c1CCC2 | > 100 µM
C/C(=N\O)c1ccc2cc(Br)c3ccccc3c2c1 | 44.4 µM
CCCCc1ccc(-n2c(C)c(COC(=O)NC)c(COC(=O)NC)c2C)cc1 | 26.4 µM
O=C(N/S(=N/S(=O)(=O)c1ccc(Br)cc1)C(Cl)(Cl)Cl)c1ccccc1 (centres undefined) | > 100 µM
CC(=O)c1sc2c(c1OC(=O)c1ccc(Cl)cc1Cl)c(=O)n(-c1ccccc1)c(=S)n2-c1ccccc1 | 35.3 µM
N#CCN1c2ccccc2CCC1Cl (centres undefined) | > 10 µM
O=C(NCCCCNC(=O)OCc1ccc2c(Cl)cc(Cl)c(O)c2n1)OCc1ccc2c(Cl)cc(Cl)c(O)c2n1 | > 100 µM
O=C(O)CNC(=O)C(CSC(=O)OCC1c2ccccc2-c2ccccc21)NC(=O)CCC(NC(=O)OCC1c2ccccc2-c2ccccc21)C(=O)O (centres undefined) | > 100 µM
O=C(O/N=C1/CCCC/C1=C\c1ccccc1)c1ccc(Cl)c(Cl)c1 | 36.7 µM
COCC(=O)Oc1cc(-c2ccc(C)cc2C)c(OC(=O)COC)c(-c2ccc(C)cc2C)c1 | 23.4 µM
CN(C)CCn1nc2c3c(c(C(=O)NCCCN(C)CCCNC(=O)c4ccc5c6c(nn5CCN(C)C)-c5ccccc5Nc46)ccc31)Nc1ccccc1-2 | 0.617 µM
COc1ccc(C2CC(c3cc(Cl)c(C)cc3O)=NN2c2ccc(S(N)(=O)=O)cc2)cc1OC (centres undefined) | 13.6 µM
O=C1c2ccccc2-c2c1c(-c1ccc(O)cc1O)nc1ccc3ccccc3c21 | > 100 µM
CC(C)(C)c1ccc(C(=O)Nc2sc3c(c2C#N)CCC(=O)C3)cc1 | > 100 µM
CCCCCCCCc1cc[n+](CC(=O)c2ccc(Br)cc2)cc1 | 2.99 µM
COc1cc(/C=N/Nc2ncnc3[nH]ncc23)ccc1O | > 25 µM

====

Below is a list of entries, each paired with its recorded TGI value.
Test system: SF-268 CNS
assay-text: NCI tumour cell line growth inhibition, 48 h
parameter: TGI

compound | tested-target | parameter | reported
COC(=O)c1cc(-c2ccc(OC)c(OC)c2)oc1-c1ccc(OC)c(OC)c1 | SF-268 CNS | TGI | > 100 µM
Cc1[nH]c2nccn2c(=O)c1CCCl | SF-268 CNS | TGI | > 100 µM
CCOC(=O)NC1C2CC(=O)C(O2)C1OCc1ccccc1 (stereo not given) | SF-268 CNS | TGI | > 100 µM
C/C(=N\NC(=O)Nc1ccccc1Cl)c1ccc(O)cc1 | SF-268 CNS | TGI | > 100 µM
N=[N+]=NC1C(O)C(CO)OC1n1cnc2c(N)ncnc21 (stereo not given) | SF-268 CNS | TGI | > 100 µM

====

Items are presented alongside their recorded TGI.
Test system: EKVX NSCLC
assay-text: NCI tumour cell line growth inhibition, 48 h
parameter: TGI

molecule | parameter | reported
O=S1CCN(Cc2ccc(-c3ccc4ncnc(Nc5ccc(OCc6cccc(F)c6)c(Cl)c5)c4c3)o2)CC1 | TGI | > 25 µM
CC1(C)SC2C(NC(=O)C(C(=O)O)c3ccccc3)C(=O)N2C1C(=O)O (stereo not drawn) | TGI | > 100 µM
O=C(O)CN1CCNCCNCC1 | TGI | > 100 µM

====

List of TGI values.
Test system: MDA-MB-435
assay-text: NCI tumour cell line growth inhibition, 48 h

compound | TGI
CCOC(=O)c1nc2cc(C(F)(F)F)ccc2nc1Nc1cc(OC)c(OC)c(OC)c1 | > 100 µM
COc1ccc2c(c1)CC[C@@H]1[C@@H]2CC[C@]2(C)C(=O)/C(=C/c3ccc(C#N)cc3)C[C@@H]12 | > 100 µM
CCC12CCCN3CCc4c(n(c5ccccc45)C(O)(C(=O)OC)C1)C32 (stereo not drawn) | > 100 µM

====

System: UACC-257 melanoma
assay-text: NCI tumour cell line growth inhibition, 48 h
Entries and their measured TGI follow.

compound | tested-target | sign | TGI, µM
O=C1/C(=C/c2ccc(Cl)cc2)COc2ccc(O)cc21 | UACC-257 melanoma | = | 13
COc1cc2c(c(OC)c1OC)-c1cccc(=O)cc1C(NC(C)=O)CC2 (stereo not given) | UACC-257 melanoma | > | 100
CC1CSC(=S)N1C(=O)N1C(=S)SCC1C (stereo not given) | UACC-257 melanoma | = | 43.4
O=C(N/N=C(/COc1ccccc1Cl)N=Cc1cccnc1)c1ccncc1 | UACC-257 melanoma | > | 100
CNc1ccc(C(=O)CC(O)CCC(C)C2OC(=O)CC(O)CC(=O)CC(O)CC(O)CC(O)CC(O)CC3(O)CC(O)C(C(=O)NCCN(C)C)C(CC(OC4OC(C)C(O)C(NC(=O)CN5CCN(CCO)CC5)C4O)/C=C/C=C/C=C/C=C\C=C/C=C/C=C/C2C)O3)cc1 (stereo not given) | UACC-257 melanoma | = | 2.79

====

System: SF-295 CNS
assay-text: NCI tumour cell line growth inhibition, 48 h; in the data active = GI50 below about 0.43 µM; inactive = the rest
Possible outcomes: true (1) (active), false (0) (inactive)

compound | tested-target | class
O=S1CCN(Cc2ccc(-c3ccc4ncnc(Nc5ccc(OCc6ccccc6)c(Cl)c5)c4c3)o2)CC1 | SF-295 CNS | false (0)
COc1cc(/C=N/Nc2ncnc3[nH]ncc23)ccc1O | SF-295 CNS | false (0)
CCCCNCC(O)c1cc2c(Cl)cc(Cl)cc2c2cc(C(F)(F)F)ccc12 (stereo not given) | SF-295 CNS | false (0)
C=C1C(=O)O[C@H]2[C@H]1CC/C(COC(=O)CCCCCCC(=O)OC/C1=C/CC[C@@]3(C)O[C@H]3[C@H]3OC(=O)C(=C)[C@@H]3CC1)=C\CC[C@@]1(C)O[C@@H]21 | SF-295 CNS | false (0)
O=C(CCl)Nc1ccc2c(c1)C(=O)c1ccccc1C2=O | SF-295 CNS | false (0)
Cn1cc(-c2nc3c(F)cc4[nH]ncc4c3c3c2CCCC3)c(C(F)(F)F)n1 | SF-295 CNS | false (0)
COc1ccc(CCn2c3c(c4c(O)cccc42)C(=O)c2ccccc2-3)cc1OC | SF-295 CNS | false (0)
COc1cc(-c2n[nH]nc2-c2ccc3c(c2)OCCO3)cc(OC)c1OC | SF-295 CNS | true (1)
Cc1cc(-c2ncc(-c3cccnc3)cc2/C=C/c2ccccc2)cnc1-c1cccnc1 | SF-295 CNS | false (0)
Cc1cc2c([nH]1)CSc1cc(S(=O)(=O)c3ccccc3)c(=O)[nH]c1-2 | SF-295 CNS | false (0)

====

System: MOLT-4 leukemia
assay-text: NCI tumour cell line growth inhibition, 48 h

molecule | TGI
CN(C)CCn1nc2c3c(c(C(=O)NCCCN(C)CCCNC(=O)c4ccc5c6c(nn5CCN(C)C)-c5ccccc5Nc46)ccc31)Nc1ccccc1-2 | 1.58 µM
N#C/C(=N/Nc1nc[nH]c1C(N)=O)C(=O)Nc1ccccc1 | > 100 µM
O=C(/C=C/c1ccsc1)c1ccc(Cl)cc1 | 43.7 µM
O=P(O)(O)C(NCC(O)CN1CCOCC1)P(=O)(O)O (stereo not given) | > 100 µM
CC(C)CC(C(N)=O)C(=O)NC(Cc1ccccc1)NC(=O)CNC(=O)C(C)NC(=O)C(N)Cc1ccc(O)cc1 (stereo not given) | > 100 µM
CC(=O)C(C)CCOC1(C)OCCC1C (stereo not given) | > 100 µM
O=[N+]([O-])O | > 100 µM
ClCCC[Si]12OCCN(CCO1)CCO2 | > 100 µM
Cc1cccc(NC(=O)/C=C/c2ccccc2)c1C | > 100 µM
OCCN1c2ccccc2Sc2ccccc21 | > 10 µM
O=[N+]([O-])c1cccnc1NCC1(CO)CCCC1 | 40.5 µM
CCOC(=O)NC1C2CC(=O)C(O2)C1OCc1ccccc1 (stereo not given) | > 100 µM
CC(C)(C)c1ccc(C(=O)Nc2sc3c(c2C#N)CCC(=O)C3)cc1 | > 100 µM
CCOc1ccccc1NC(=O)CC1Sc2ccccc2NC1=O (stereo not given) | > 100 µM
CS(=O)(=O)N1CC(CI)c2ccc(O)cc21 (stereo not given) | 9.65 µM
Cc1cc(NN)nc2n[nH]c(N)c12 | > 100 µM
O=C1/C(=C/c2ccc(Cl)cc2)COc2ccc(O)cc21 | 8.23 µM
COc1ccccc1N1C(=O)/C(=C\c2cc(OC)c(OC)c(OC)c2)SC1c1ccccc1 (stereo not given) | > 100 µM
COc1cc2c(c(OC)c1OC)-c1cccc(=O)cc1C(NC(C)=O)CC2 (stereo not given) | > 100 µM
CCOC(=O)COc1ccc(OCC(=O)OCC)c2c1C(=O)CCCC2=O | > 100 µM
COc1ccc(-c2cc(-c3ccccc3)nc(/N=C\c3ccccc3)n2)c(O)c1 | > 100 µM
CCOC(=O)c1nc2cc(C(F)(F)F)ccc2nc1Nc1cc(OC)c(OC)c(OC)c1 | > 100 µM
O=C1c2ccccc2-c2c1c(-c1ccc(O)cc1O)nc1ccc3ccccc3c21 | > 100 µM
COc1ccc(NCc2cc(OC)c(OC)c(OC)c2)cc1 | > 100 µM
Cc1nc2cc([N+](=O)[O-])ccc2c(NCCCN(C)C)c1C | 29.4 µM
Cc1nnc(N)nc1C/C=C/C(Sc1ccc(Cl)cc1)c1ccccc1 (stereo not given) | > 32 µM
N=[N+]=NC1C(O)C(CO)OC1n1cnc2c(N)ncnc21 (stereo not given) | > 22.4 µM
COc1cc(Nc2cnc3cc(N)ccc3n2)cc(OC)c1OC | > 100 µM
O=C1/C(=C/c2ccccc2)CN(C(=O)C(F)(F)F)C/C1=C\c1ccccc1 | 79.6 µM
COC(=O)c1c(OC(C)=O)ccc2c1c1c(OC(C)=O)c3ccccc3c(OC(C)=O)c1n2C | 39.1 µM
